src = patent US8163778B2

Biological target: UniProt P09467
Sequence (P09467 2-338 limits assumed): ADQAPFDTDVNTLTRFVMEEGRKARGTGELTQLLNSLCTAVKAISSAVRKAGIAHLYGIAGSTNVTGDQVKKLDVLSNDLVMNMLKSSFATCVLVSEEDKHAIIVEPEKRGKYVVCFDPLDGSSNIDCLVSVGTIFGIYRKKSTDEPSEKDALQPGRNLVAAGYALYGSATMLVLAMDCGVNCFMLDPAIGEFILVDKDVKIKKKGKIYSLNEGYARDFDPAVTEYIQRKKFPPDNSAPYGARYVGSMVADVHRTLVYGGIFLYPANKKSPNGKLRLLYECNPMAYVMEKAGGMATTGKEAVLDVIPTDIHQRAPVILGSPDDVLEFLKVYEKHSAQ
Test: FBPase assay (malachite green phosphate release)
Conditions: recombinant human liver FBPase, 50 μM fructose-1,6-bisphosphate
readoutLabel: IC50 (nM)

Please review the entries below; each comes with its answer.
[
  {
    "entrySmiles": "C=C(C)CNc1cc(SC)cc(NC(=O)NS(=O)(=O)c2cc(C)c(CCOC)s2)n1",
    "recordedValue": 1610
  },
  {
    "entrySmiles": "Cc1cccc(S(=O)(=O)NC(=O)Nc2cccc(Cl)n2)c1",
    "recordedValue": 4600
  },
  {
    "entrySmiles": "N#CCc1ccc(-c2ccc(S(=O)(=O)NC(=O)Nc3cc(Br)ccn3)s2)cc1",
    "recordedValue": 2210
  }
]

a: CNC(=O)Nc1cc(OC)cc(NC(=O)NS(=O)(=O)c2csc(COC)c2)n1
b: COCCc1sc(S(=O)(=O)NC(=O)Nc2cc(C(N)=NO)cc(N)n2)cc1C
c: Nc1cc(Br)cc(NC(=O)NS(=O)(=O)c2coc3ccccc23)n1
d: CNC(=O)c1cc(SC)cc(NC(=O)NS(=O)(=O)c2cc(C)c(CCOC)s2)n1
Ask: Order the records by IC50, with each subsequent value no larger than the one before. Write the labels in rank order as requested.
Reply: b, c, d, a
(b: 16000 nM, c: 1870 nM, d: 840 nM, a: 420 nM)

A: CC(=O)OCCc1sc(S(=O)(=O)NC(=O)Nc2cc(C(F)(F)F)cc(C)n2)cc1C
B: COCCc1sc(S(=O)(=O)NC(=O)Nc2cc(C(F)(F)F)ccn2)cc1C
Ask: Select one: A or B . Criterion: greater recorded IC50. Respond using the label that marks the chosen record.
Reply: B

a: COCCc1sc(S(=O)(=O)NC(=O)Nc2cc(Br)cc(N)n2)cc1Cl
b: CNC(=O)Nc1cc(OC)cc(NC(=O)NS(=O)(=O)c2cc3cc(Cl)ccc3s2)n1
c: CC(=O)OCCc1sc(S(=O)(=O)NC(=O)Nc2cc(C(F)(F)F)cc(Cl)n2)cc1C
d: COCCc1sc(S(=O)(=O)NC(=O)Nc2cc(SC)cc(NCCCO)n2)cc1C
e: CNC(=O)Nc1cc(C#N)cc(NC(=O)NS(=O)(=O)c2cc(C)c(CCOC)s2)n1
Ask: Please give the order of these compounds when sorted by IC50, largest value leading. // format: requested-order list of labels
Reply: d, c, e, a, b
(d: 2260 nM, c: 844 nM, e: 242 nM, a: 132 nM, b: 58 nM)
